Would you mind telling me the reported activity change, negative = inhibition of each entry?
assay-details: NFAT Signaling Pathway (AID 444);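 further: carbachol stimulus at about its EC50 of 1 µM final; on the % scale 0 is the no-effect control and ±100 the full control effect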
assay-setup: Jurkat NFAT-bla M1, carbachol, beta-lactamase ratio, 5 h; at 17.2 µM (top of the series) unless noted
Records with an inconclusive call do not appear.
The answer is to be given in %; state only the numeric part.

Ask | Entry `CCOC(=O)CSc1nc(N2CCOCC2)c2c(c1C#N)CC(C)(C)N(C)C2` has what activity change, negative = inhibition?
Reply | -17.7

Ask | // returns reported activity change, negative = inhibition for input `CN(C)CCNc1nc(-c2ccco2)c2c(c1C#N)CC(C)(C)OC2`
Reply | -23

Ask | Reported activity change, negative = inhibition for `CN(Cc1ccccc1)c1ncnc2ccc(Br)cc12` : what is it?
Reply | -9.63

Ask | Field request: activity change, negative = inhibition | item: `COc1ccc(C(=O)N/C(N)=N/c2nc3ccccc3o2)cc1`
Reply | -19

Ask | Please look up its activity change, negative = inhibition: `CCCCNc1nc2c(c(=O)n(C)c(=O)n2C)n1Cc1cccc(OC)c1`
Reply | 2.13

Ask | What does the data say about its activity change, negative = inhibition? Entry: `O=C(COc1ccccc1)Nc1ccc(-c2nnc(-c3ccco3)o2)cc1`
Reply | 7.57
